Entries annotated with measured pIC50
Molecular target: Glutaminyl-peptide cyclotransferase (Homo sapiens, UniProt Q16769)
Sequence (Q16769 whole entry): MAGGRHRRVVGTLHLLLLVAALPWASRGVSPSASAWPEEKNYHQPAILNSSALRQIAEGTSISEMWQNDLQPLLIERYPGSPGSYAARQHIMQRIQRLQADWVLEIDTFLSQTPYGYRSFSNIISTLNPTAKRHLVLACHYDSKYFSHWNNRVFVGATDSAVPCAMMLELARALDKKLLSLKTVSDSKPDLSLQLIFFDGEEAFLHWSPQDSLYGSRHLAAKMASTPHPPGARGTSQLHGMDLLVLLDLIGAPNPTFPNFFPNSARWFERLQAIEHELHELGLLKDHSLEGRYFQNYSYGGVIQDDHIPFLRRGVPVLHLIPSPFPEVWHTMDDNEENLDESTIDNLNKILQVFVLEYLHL
Assay: Spectrophotometic Assay: Spectrophotometic Assay: This novel assay was used to determine the kinetic parameters for most of the QC substrates. QC activity was analyzed spectrophotometrically using a continuous method, that was derived by adapting a previous discontinuous assay (Bateman, R.C.J. 1989 J Neurosci Methods 30, 23-28).
pIC50: −log10 of the molar value.

Here are 4 compounds together with their reported answers.
[
  {
    "compound": "O=C1NCC(c2c(F)cccc2F)N1c1ccn2ccnc2c1 (stereo unspecified)",
    "pIC50": "> 5.00"
  },
  {
    "compound": "COc1cc(C2CNC(=O)N2c2ccn3ccnc3c2)cc2c1OCO2 (stereo unspecified)",
    "pIC50": "> 5.00"
  },
  {
    "compound": "O=C1OC[C@H](c2ccc(OCCN3CCOCC3)cc2)N1c1ccc2[nH]cnc2c1",
    "pIC50": "> 5.00"
  },
  {
    "compound": "O=C1OCC(c2ccc(N3CCCC3)cc2)N1c1ccc2[nH]cnc2c1 (stereo unspecified)",
    "pIC50": "> 5.00"
  }
]

Please report the recorded pIC50 for O=C1OC[C@H](c2ccccc2)N1c1ccc2[nH]cnc2c1 .
> 5.00

Please report the recorded pIC50 for CN1CCN(c2cccc([C@H]3COC(=O)N3c3ccc4nc[nH]c4c3)c2)CC1 .
> 5.00

Please report the recorded pIC50 for O=C1NCC(c2ccc3c(c2)OC(F)(F)O3)N1c1ccc2[nH]cnc2c1 (stereo unspecified) .
> 5.00
